// mortality at 10 ppm lookup, one value per entry
# System: pea aphid
# PROTOCOL: Systemic insecticidal activity (soil/water), pea aphid
# Type: in vivo, Acyrthosiphon pisum (Harris)
# EXPERIMENTAL CONDITIONS: Acyrthosiphon pisum, 10 ppm, 48-hour exposure, read-out: % Kill, Pea Aphid

COMPOUND	mortality at 10 ppm
CCCOP(=O)(OCCC)N(C)SN(C)C(=O)Oc1cccc2c1OC(C)(C)C2 [2(d)]	0%
CCCN(SN(C)C(=O)Oc1cccc2c1OC(C)(C)C2)P(=O)(OCC)OCC [4(c)]	0%
CCOP(=O)(OCC)N(CCc1ccccc1)SN(C)C(=O)Oc1cccc2c1OC(C)(C)C2 [9(c)]	0%
CCCOP(=O)(OCCC)N(CCC)SN(C)C(=O)Oc1cccc2c1OC(C)(C)C2 [3(c)]	0%
